Assay: physchem
Conditions: pH 7.8, Solubility Conc.
Positions of bridges follow the written chain, without caps; N, C: chain ends. Non-standard residues stand in square brackets, D forms with d. Residues, ends and D or L forms follow the SMILES beside them. Groups on a side chain read outwards from the residue. *: point of attachment. Lys(CH2CO2H)2 = N[C@@H](CCCCN(CC(=O)O)CC(=O)O)C(=O)O; X1 = O=C(O)CCCCCCCCCCCCCCCCC(=O)NCCOCCOCCN*; C17 diacid = O=C(O)CCCCCCCCCCCCCCCC(=O)*; C16 diacid = O=C(O)CCCCCCCCCCCCCCC(=O)*; hCys = N[C@@H](CCS)C(=O)O; Orn = NCCC[C@H](N)C(=O)O; AEEA = NCCOCCOCC(=O)O
measure: solubility (µM)
One number for each entry, in µM.

Look over these answered cases.
| molecule | reading_unit | solubility |
| --- | --- | --- |
| CC(=O)N[C@H]1CCSSC[C@@H](C(=O)N2CCC[C@H]2C(=O)N2CCC[C@H]2C(=O)N[C@@H](CCCCN)C(=O)N[C@@H](CCC(=O)O)C(=O)N[C@@H](CCCCN(CC(=O)O)CC(=O)O)C(=O)N[C@@H](CCCCNC(=O)COCCOCCNC(=O)CCCCCCCCCCCCCCC(=O)O)C(N)=O)NC(=O)[C@H](Cc2c[nH]c3ccccc23)NC(=O)[C@H](CCCNC(=N)N)NC(=O)[C@@H](Cc2ccccc2)NC(=O)[C@H](Cc2c[nH]cn2)NC1=O [Example 5] (Ac-[hCys]H[dF]RWCPPKE[Lys(CH2CO2H)2]K([AEEA-C16 diacid])-NH2; disulfide 1-6) | µM | 509 |
| CC(=O)N[C@H]1CCSSC[C@@H](C(=O)N[C@@H](CO)C(=O)N2CCC[C@H]2C(=O)N[C@@H](CCCCN)C(=O)N[C@@H](CCC(=O)O)C(=O)N[C@@H](CCCCN(CC(=O)O)CC(=O)O)C(=O)N[C@@H](CCCCNC(=O)COCCOCCNC(=O)CCCCCCCCCCCCCCC(=O)O)C(N)=O)NC(=O)[C@H](Cc2c[nH]c3ccccc23)NC(=O)[C@H](CCCNC(=N)N)NC(=O)[C@@H](Cc2ccccc2)NC(=O)[C@H](Cc2c[nH]cn2)NC1=O [Example 60] (Ac-[hCys]H[dF]RWCSPKE[Lys(CH2CO2H)2]K([AEEA-C16 diacid])-NH2; disulfide 1-6) | µM | 461 |
| CC(=O)N[C@H]1CCCNC(=O)C[C@@H](C(=O)N2CCC[C@H]2C(=O)N2CCC[C@H]2C(=O)N[C@@H](CCCNC(=N)N)C(=O)N[C@@H](CCC(=O)O)C(=O)N[C@@H](CCCCN(CC(=O)O)CC(=O)O)C(=O)N[C@@H](CO)C(=O)N[C@@H](CO)C(=O)NCCOCCOCCNC(=O)CCCCCCCCCCCCCCCCC(=O)O)NC(=O)[C@H](Cc2c[nH]c3ccccc23)NC(=O)[C@H](CCCNC(=N)N)NC(=O)[C@@H](Cc2ccccc2)NC(=O)[C@H](Cc2c[nH]cn2)NC1=O [Example 50] (Ac-[Orn]H[dF]RWDPPRE[Lys(CH2CO2H)2]SS-X1; lactam 1-6) | µM | 212 |

Next item in the queue.
Qu. Fill in: solubility of CC(=O)N[C@H]1CCCCNC(=O)C[C@@H](C(=O)N2CCC[C@H]2C(=O)N2CCC[C@H]2C(=O)N[C@@H](Cc2c[nH]cn2)C(=O)N[C@@H](CCC(=O)O)C(=O)N[C@@H](CCCCN(CC(=O)O)CC(=O)O)C(=O)N[C@@H](CCCCNC(=O)COCCOCCNC(=O)CCCCCCCCCCCCCCCC(=O)O)C(N)=O)NC(=O)[C@H](Cc2c[nH]c3ccccc23)NC(=O)[C@H](CCCNC(=N)N)NC(=O)[C@@H](Cc2ccccc2)NC(=O)[C@H](Cc2c[nH]cn2)NC1=O [Example 44] (Ac-KH[dF]RWDPPHE[Lys(CH2CO2H)2]K([AEEA-C17 diacid])-NH2; lactam 1-6) is ___
Ans. 429
